FYI, the data here is from patent US20120289501A1.

Recorded IC50 for the following compounds
target: LCK (Homo sapiens, UniProt P06239); test: Enzymatic kinase assay (filter-binding / flashplate, 33P incorporation); assay type: biochemical; conditions: enzymatic kinase selectivity
Sequence (P06239 whole entry, species assumed): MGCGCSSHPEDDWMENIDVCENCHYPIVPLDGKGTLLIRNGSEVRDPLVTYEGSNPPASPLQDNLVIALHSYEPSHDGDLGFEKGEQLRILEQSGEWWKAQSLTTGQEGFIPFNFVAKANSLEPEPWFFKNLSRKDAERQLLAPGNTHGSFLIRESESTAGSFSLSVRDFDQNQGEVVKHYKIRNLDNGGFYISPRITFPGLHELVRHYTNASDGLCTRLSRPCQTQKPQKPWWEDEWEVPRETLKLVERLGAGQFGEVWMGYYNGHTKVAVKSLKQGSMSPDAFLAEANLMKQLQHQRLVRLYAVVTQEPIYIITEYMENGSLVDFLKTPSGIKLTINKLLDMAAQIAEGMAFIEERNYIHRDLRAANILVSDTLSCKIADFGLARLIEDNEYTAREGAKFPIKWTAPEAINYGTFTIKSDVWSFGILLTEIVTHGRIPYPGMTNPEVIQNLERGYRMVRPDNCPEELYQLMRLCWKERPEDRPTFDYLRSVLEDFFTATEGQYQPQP
Could you write the number and then its unit?

Some solved cases for reference:
{"COMPOUND": "Nc1ncnc2c1c(-c1ccc3c(c1)OC(c1ccccc1)C=C3)cn2[C@H]1C[C@@H](CN2CCS(=O)(=O)CC2)C1 (mixture of isomers)", "RESULT": "3600 nM"}
{"COMPOUND": "Nc1ncnc2c1c(-c1ccc3c(c1)OC(c1ccccc1)CC3)cn2C1CC(O)(CO)C1 (single isomer, unassigned)", "RESULT": "6150 nM"}
{"COMPOUND": "CC(=O)NC[C@H]1C[C@@H](n2cc(-c3ccc4c(c3)OC(c3ccccc3)CC4)c3c(N)ncnc32)C1 (mixture of isomers)", "RESULT": "4460 nM"}

Input line: If you can, please state the reported IC50 value of CC(=O)N1CCN([C@H]2C[C@@H](n3cc(-c4ccc5c(c4)OC(c4ccccc4)CC5)c4c(N)ncnc43)C2)CC1 (relative stereo) .
Output line: 3800 nM

###

target: IGF1R (Homo sapiens, UniProt P08069); test: Cellular IGF-1R assay: inhibition of IGF1R phosphorylation in transduced Hek293 cells, capture ELISA (MSD); type: cell-based; design: Hek293 cells transduced with the corresponding receptors; expressed in transfected cells; host or cells: Hek293 (Hek293-IGF1R)
Sequence (P08069 31-1367): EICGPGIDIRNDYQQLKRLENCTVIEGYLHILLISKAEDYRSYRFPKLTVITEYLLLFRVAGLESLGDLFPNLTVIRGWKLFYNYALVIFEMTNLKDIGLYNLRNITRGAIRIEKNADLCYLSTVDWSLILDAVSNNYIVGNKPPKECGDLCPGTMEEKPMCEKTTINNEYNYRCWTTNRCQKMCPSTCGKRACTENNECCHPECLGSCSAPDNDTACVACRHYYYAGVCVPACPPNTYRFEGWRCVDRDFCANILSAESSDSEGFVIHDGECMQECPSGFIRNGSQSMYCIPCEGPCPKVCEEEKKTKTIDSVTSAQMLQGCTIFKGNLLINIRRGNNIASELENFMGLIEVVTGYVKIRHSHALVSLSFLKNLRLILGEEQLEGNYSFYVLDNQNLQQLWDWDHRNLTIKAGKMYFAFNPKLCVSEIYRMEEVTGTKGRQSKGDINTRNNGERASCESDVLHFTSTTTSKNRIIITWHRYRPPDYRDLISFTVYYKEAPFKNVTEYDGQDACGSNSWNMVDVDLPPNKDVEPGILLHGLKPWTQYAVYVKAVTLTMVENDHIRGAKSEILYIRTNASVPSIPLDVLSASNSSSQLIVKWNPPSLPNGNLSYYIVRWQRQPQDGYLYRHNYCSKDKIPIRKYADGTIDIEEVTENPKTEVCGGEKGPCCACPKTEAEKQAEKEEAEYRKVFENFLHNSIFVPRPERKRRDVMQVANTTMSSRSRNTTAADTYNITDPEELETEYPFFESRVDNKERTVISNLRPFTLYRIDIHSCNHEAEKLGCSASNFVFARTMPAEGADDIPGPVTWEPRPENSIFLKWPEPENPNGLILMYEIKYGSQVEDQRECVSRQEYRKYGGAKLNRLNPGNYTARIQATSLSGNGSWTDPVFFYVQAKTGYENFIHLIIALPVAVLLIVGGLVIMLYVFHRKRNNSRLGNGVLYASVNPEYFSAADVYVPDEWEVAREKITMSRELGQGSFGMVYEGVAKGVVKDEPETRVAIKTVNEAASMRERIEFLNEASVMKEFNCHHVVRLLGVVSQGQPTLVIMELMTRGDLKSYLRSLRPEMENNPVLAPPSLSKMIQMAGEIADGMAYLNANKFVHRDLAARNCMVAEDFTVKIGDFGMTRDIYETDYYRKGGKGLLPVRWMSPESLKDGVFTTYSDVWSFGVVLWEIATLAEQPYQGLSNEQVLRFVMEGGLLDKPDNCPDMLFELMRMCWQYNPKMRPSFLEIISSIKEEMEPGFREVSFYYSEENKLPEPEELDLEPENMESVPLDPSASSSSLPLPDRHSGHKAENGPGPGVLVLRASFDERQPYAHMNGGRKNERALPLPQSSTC
# if measured IC50 < 9 nM: t  # else: f

{"MOLECULE": "Nc1ncnc2c1c(-c1ccc3c(c1)OC(c1ccccc1)CC3)cn2[C@H]1C[C@@](O)(CO)C1 (mixture of isomers)", "ANSWER_LABEL": "f"}
{"MOLECULE": "Nc1ncnc2c1c(-c1ccc3c(c1)OC(c1ccccc1)CC3)cn2[C@H]1C[C@@](O)(CN2CCS(=O)(=O)CC2)C1 (stereo partly shown)", "ANSWER_LABEL": "t"}
{"MOLECULE": "Nc1ncnc2c1c(-c1ccc3c(c1)OC(c1ccccc1)CC3)cn2C1CC(CN2CCC(O)CC2)C1 (stereo not shown)", "ANSWER_LABEL": "f"}
{"MOLECULE": "Nc1ncnc2c1c(-c1ccc3c(c1)O[C@@H](c1ccccc1)CC3)cn2[C@H]1C[C@@H](CN2CCS(=O)(=O)CC2)C1", "ANSWER_LABEL": "t"}

Shift focus to the following entry.
Input line: State whether 9 nM exceeds IC50 recorded for Nc1ncnc2c1c(-c1ccc3c(c1)OC(C1CCCO1)CC3)cn2C1CC(O)(CO)C1 (mixture of isomers) [Example 29] .
Output line: f

###

Recorded IC50 for the following compounds
target: COT1 (Homo sapiens); assay: Enzymatic kinase assay (filter-binding / flashplate, 33P incorporation); type: biochemical; details: enzymatic kinase selectivity
Sequence (P41279 whole entry): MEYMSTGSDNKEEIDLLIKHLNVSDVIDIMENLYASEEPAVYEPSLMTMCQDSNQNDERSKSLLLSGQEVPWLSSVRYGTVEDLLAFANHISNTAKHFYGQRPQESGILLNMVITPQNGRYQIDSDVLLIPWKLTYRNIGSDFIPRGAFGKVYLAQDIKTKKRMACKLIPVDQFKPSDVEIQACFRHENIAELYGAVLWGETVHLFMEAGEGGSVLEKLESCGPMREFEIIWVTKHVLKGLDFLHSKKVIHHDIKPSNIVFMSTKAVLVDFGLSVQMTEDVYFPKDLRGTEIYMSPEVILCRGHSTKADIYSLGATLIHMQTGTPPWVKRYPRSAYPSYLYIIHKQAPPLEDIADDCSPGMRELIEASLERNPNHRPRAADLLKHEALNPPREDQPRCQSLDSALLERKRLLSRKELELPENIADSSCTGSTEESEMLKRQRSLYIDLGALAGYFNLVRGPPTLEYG

{"COMPOUND": "Nc1ncnc2c1c(-c1ccc3c(c1)OC(c1ccccc1)CC3)cn2C1CC(O)(CO)C1 (single isomer, unassigned) [Example 26]", "RESULT": "> 10000 nM"}
{"COMPOUND": "CC(=O)NC[C@H]1C[C@@H](n2cc(-c3ccc4c(c3)OC(c3ccccc3)CC4)c3c(N)ncnc32)C1 (mixture of isomers) [Example 16]", "RESULT": "> 10000 nM"}
{"COMPOUND": "CC(=O)N1CCN([C@H]2C[C@@H](n3cc(-c4ccc5c(c4)OC(c4ccccc4)CC5)c4c(N)ncnc43)C2)CC1 (relative stereo) [Example 38]", "RESULT": "> 10000 nM"}

Okay, next one:
Input line: If you can, please state the reported IC50 value of Nc1ncnc2c1c(-c1ccc3c(c1)OC(c1ccccc1)C=C3)cn2[C@H]1C[C@@H](CN2CCS(=O)(=O)CC2)C1 (mixture of isomers) [Example 21] .
Output line: > 10000 nM

###

molecular target: IGF1R (Homo sapiens, UniProt P08069); assay: Cellular IGF-1R assay: inhibition of IGF1R phosphorylation in transduced Hek293 cells, capture ELISA (MSD); type: cell-based; set-up: Hek293 cells transduced with the corresponding receptors; expressed in transfected cells; host or cells: Hek293 (Hek293-IGF1R)
# if measured IC50 < 20 nM: 1 (yes)  # else: 0 (no)

{"COMPOUND": "Nc1ncnc2c1c(-c1ccc3c(c1)O[C@H](c1ccccc1)CC3)cn2[C@H]1C[C@@H](CO)C1 [Example 11]", "ANSWER_LABEL": "1 (yes)"}

Input line: State whether 20 nM exceeds IC50 recorded for Nc1ncnc2c1c(-c1ccc3c(c1)O[C@H](c1ccccc1)CC3)cn2[C@H]1C[C@@H](CN2CCS(=O)(=O)CC2)C1 [Example 25] .
Output line: 1 (yes)

Input line: Now the compound Nc1ncnc2c1c(-c1ccc3c(c1)OC(C1CCCO1)CC3)cn2C1CC(CN2CCS(=O)(=O)CC2)C1 (single isomer, unassigned) [Example 31]
Output line: 1 (yes)

Input line: Now the compound Nc1ncnc2c1c(-c1ccc3c(c1)O[C@@H](c1ccccc1)CC3)cn2[C@H]1C[C@@H](CO)C1 [Example 12]
Output line: 0 (no)

Input line: Now the compound Nc1ncnc2c1c(-c1ccc3c(c1)OC(C1CCCO1)CC3)cn2C1CC(O)(CO)C1 (single isomer, unassigned) [Example 32]
Output line: 0 (no)

###

Molecular target: cABLT315 (Homo sapiens, UniProt P00519, T315I)
Experiment: Enzymatic kinase assay (filter-binding / flashplate, 33P incorporation)
Type: biochemical
Conditions: enzymatic kinase selectivity
Procedure: Two methods were used to analyze phosphorylated peptides and proteins produced by the listed tyrosine and serine/threonine-specific protein kinases: either using a filter-binding assay (FB), or using a flashplate assay (FP). The activities of protein kinases were assayed in the presence or absence of inhibitors, by measuring the incorporation of ^33P from [γ^33P]ATP into appropriate substrates. 96-well polypropylene microplates were used to assay the activity in the FB mode. […]
MEASURE_NAME: IC50 (nM)
Response body: numeric value in nM, unit text excluded.

{"MOLECULE": "Nc1ncnc2c1c(-c1ccc3c(c1)OC(c1ccccc1)CC3)cn2C1CC(O)(CO)C1 (single isomer, unassigned)", "MEASURE_NAME": "IC50", "UNITS_OF_MEASURE": "nM", "RESULT_NUMBER": 4350}

Okay, next one:
Input line: If you can, please state the reported IC50 value of CC(=O)NC[C@H]1C[C@@H](n2cc(-c3ccc4c(c3)OC(c3ccccc3)CC4)c3c(N)ncnc32)C1 (mixture of isomers) .
Output line: 8000

###

target: FGFR-4 (Homo sapiens, UniProt P22455); assay: Enzymatic kinase assay (filter-binding / flashplate, 33P incorporation); type: biochemical; conditions: enzymatic kinase selectivity
Sequence (P22455 22-802, species assumed): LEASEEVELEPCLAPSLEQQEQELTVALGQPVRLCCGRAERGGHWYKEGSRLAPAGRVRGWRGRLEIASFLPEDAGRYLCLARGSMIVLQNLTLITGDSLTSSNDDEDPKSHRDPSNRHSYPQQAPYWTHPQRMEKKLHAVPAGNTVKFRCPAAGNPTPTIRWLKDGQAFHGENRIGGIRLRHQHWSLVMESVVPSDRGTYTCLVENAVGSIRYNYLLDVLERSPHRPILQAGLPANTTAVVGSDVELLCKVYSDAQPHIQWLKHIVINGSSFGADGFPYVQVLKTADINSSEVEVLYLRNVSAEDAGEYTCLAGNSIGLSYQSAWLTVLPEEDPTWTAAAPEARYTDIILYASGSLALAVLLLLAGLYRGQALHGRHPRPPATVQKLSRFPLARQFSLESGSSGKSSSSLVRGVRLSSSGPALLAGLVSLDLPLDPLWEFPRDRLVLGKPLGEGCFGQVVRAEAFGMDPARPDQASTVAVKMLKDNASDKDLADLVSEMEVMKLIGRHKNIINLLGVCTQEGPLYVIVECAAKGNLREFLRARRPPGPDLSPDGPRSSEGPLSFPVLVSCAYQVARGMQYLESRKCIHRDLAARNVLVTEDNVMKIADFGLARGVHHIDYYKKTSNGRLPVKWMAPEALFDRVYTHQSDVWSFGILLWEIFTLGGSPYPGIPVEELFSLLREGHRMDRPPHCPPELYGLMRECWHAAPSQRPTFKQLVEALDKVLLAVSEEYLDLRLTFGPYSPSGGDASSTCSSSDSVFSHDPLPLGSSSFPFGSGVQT
MEASURE_NAME: IC50

Some solved cases for reference:
{"COMPOUND": "Nc1ncnc2c1c(-c1ccc3c(c1)OC(c1ccccc1)CC3)cn2C1CC(O)(CO)C1 (single isomer, unassigned)", "IC50": "8900 nM"}
{"COMPOUND": "CC(=O)N1CCN([C@H]2C[C@@H](n3cc(-c4ccc5c(c4)OC(c4ccccc4)CC5)c4c(N)ncnc43)C2)CC1 (relative stereo)", "IC50": "> 10000 nM"}
{"COMPOUND": "CC(=O)NC[C@H]1C[C@@H](n2cc(-c3ccc4c(c3)OC(c3ccccc3)CC4)c3c(N)ncnc32)C1 (mixture of isomers)", "IC50": "> 10000 nM"}

Okay, next one:
Input line: If you can, please state the reported IC50 value of Nc1ncnc2c1c(-c1ccc3c(c1)OC(c1ccccc1)C=C3)cn2[C@H]1C[C@@H](CN2CCS(=O)(=O)CC2)C1 (mixture of isomers) .
Output line: > 10000 nM

###

Recorded IC50 for the following compounds
target: IGF1R (Homo sapiens, UniProt P08069); experiment: Enzymatic kinase assay (filter-binding / flashplate, 33P incorporation); type: biochemical; settings: enzymatic kinase selectivity

Some solved cases for reference:
{"COMPOUND": "Nc1ncnc2c1c(-c1ccc3c(c1)OC(c1ccccc1)C=C3)cn2[C@H]1C[C@@H](CN2CCS(=O)(=O)CC2)C1 (mixture of isomers)", "RESULT": "7.8 nM"}
{"COMPOUND": "CC(=O)NC[C@H]1C[C@@H](n2cc(-c3ccc4c(c3)OC(c3ccccc3)CC4)c3c(N)ncnc32)C1 (mixture of isomers)", "RESULT": "50 nM"}
{"COMPOUND": "Nc1ncnc2c1c(-c1ccc3c(c1)OC(c1ccccc1)CC3)cn2C1CC(O)(CO)C1 (single isomer, unassigned)", "RESULT": "58 nM"}

Okay, next one:
Input line: If you can, please state the reported IC50 value of CC(=O)N1CCN([C@H]2C[C@@H](n3cc(-c4ccc5c(c4)OC(c4ccccc4)CC5)c4c(N)ncnc43)C2)CC1 (relative stereo) .
Output line: 17 nM

###

Recorded IC50 for the following compounds
Target: UniProt:O14965
Sequence (O14965 1-403): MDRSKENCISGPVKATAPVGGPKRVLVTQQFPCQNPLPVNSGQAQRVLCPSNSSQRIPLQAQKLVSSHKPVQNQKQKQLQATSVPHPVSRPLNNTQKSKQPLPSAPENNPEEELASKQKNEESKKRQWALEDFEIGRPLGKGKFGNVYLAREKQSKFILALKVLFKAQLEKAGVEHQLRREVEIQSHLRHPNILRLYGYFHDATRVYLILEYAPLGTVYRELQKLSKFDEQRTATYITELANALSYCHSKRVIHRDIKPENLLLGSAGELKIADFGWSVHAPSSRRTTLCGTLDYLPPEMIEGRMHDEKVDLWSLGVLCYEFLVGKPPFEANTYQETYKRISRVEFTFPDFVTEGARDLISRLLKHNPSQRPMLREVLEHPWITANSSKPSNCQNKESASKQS
Test: Enzymatic kinase assay (filter-binding / flashplate, 33P incorporation)
Assay type: biochemical
Settings: enzymatic kinase selectivity
Response body: numeric value in nM, unit text excluded.

Some solved cases for reference:
{"COMPOUND": "Nc1ncnc2c1c(-c1ccc3c(c1)OC(c1ccccc1)C=C3)cn2[C@H]1C[C@@H](CN2CCS(=O)(=O)CC2)C1 (mixture of isomers)", "IC50 (nM)": 4000}
{"COMPOUND": "Nc1ncnc2c1c(-c1ccc3c(c1)OC(c1ccccc1)CC3)cn2C1CC(O)(CO)C1 (single isomer, unassigned)", "IC50 (nM)": 8800}

Okay, next one:
Input line: If you can, please state the reported IC50 value of CC(=O)NC[C@H]1C[C@@H](n2cc(-c3ccc4c(c3)OC(c3ccccc3)CC4)c3c(N)ncnc32)C1 (mixture of isomers) .
Output line: 4300
